System: Pseudomonas aeruginosa
Conditions: Concentration 32 ug.mL-1; ASSAY_TEST Inhibition of Bacterial Growth; detection method Absorption (OD600); MEDIA CAMHB; plate type 384well; NBS; CORNING #3640; time 18 hr
Description: Antibacterial activity against Pseudomonas aeruginosa ATCC 27853 (CO-ADD:GN_042); MIC in CAMBH media using NBS plates, by OD(600)
Among all 23,000 compounds or so, about 30 (0.1%) showed an effect of 50% or more. This excerpt belongs to a sample that is enriched for strong results. Entries with a potency or affinity are not part of this list.
measured-endpoint: Inhibition (%)
Write down the numeric answer in % and omit the unit.

Example cases with answers are listed next.
INSERT INTO assay_data (chemical_smiles, reported) VALUES
  ('O=[N+]([O-])c1ccc(-c2ccccc2Nc2ccccc2)cc1C(F)(F)F', 49.55),
  ('Cc1ccccc1Nc1ccccc1-c1ccc([N+](=O)[O-])cc1', -5.81),
  ('c1ccc(Nc2ccccc2-c2ncccn2)cc1', 60.14),
  ('O=[N+]([O-])c1ccc(-c2c(Nc3ccccc3)cccc2-c2ccccc2)cc1', 19.1);

Consider the additional compound presented here.
Inhibition for O=[N+]([O-])c1ccc(-c2ccccc2Nc2ccccc2)cc1F ? 55.36

Entry source: ChEMBL document CHEMBL4513137
